# EXPERIMENTAL SYSTEM: HIV-1 RT-associated RNase H (Human immunodeficiency virus type 1 group M subtype B, UniProt P04585)
# EXPERIMENT: HIV-1 DNA polymerase-independent RNase H activity determination
# Format: biochemical
Would you kindly list pIC50 for each of these compounds?
Notebook: values listed as pIC50 are -log10 of the concentration (mol/L).

Prompt line: For the compound shown here, COc1ccc(C(=O)Nc2sc3c(c2C(=O)Nc2ccccn2)CCCCC3)c(O)n1 , give the reported pIC50.
Response line: 4.82

Prompt line: Entry O=C(Nc1sc2c(c1C(=O)Nc1ccccn1)CCCCC2)c1ccccc1[N+](=O)[O-] please
Response line: 4.27

Prompt line: Entry O=C(Nc1sc2c(c1C(=O)Nc1ccccn1)CCCCC2)c1cccs1 please
Response line: 4.98

Prompt line: Entry COc1ccc(C(=O)Nc2sc3c(c2C(=O)Nc2ccccn2)CCCCC3)c(OC)n1 please
Response line: 4.67

Prompt line: Entry Cc1ccccc1C(=O)Nc1sc2c(c1C(=O)Nc1ccccn1)CCCCC2 please
Response line: 4.74

Prompt line: Entry Nc1ccccc1C(=O)Nc1sc2c(c1C(=O)Nc1ccccn1)CCCCC2 please
Response line: 4.83

Prompt line: Entry O=C(Nc1sc2c(c1C(=O)Nc1ccccc1F)CCCCC2)c1ccccn1 please
Response line: 4.86

Prompt line: Entry COc1ccc(C(=O)Nc2sc3c(c2C(=O)Nc2ccccn2)CCCCC3)cc1OC please
Response line: 5.40

Prompt line: Entry Nc1ccc(C(=O)Nc2sc3c(c2C(=O)Nc2ccccn2)CCCCC3)cc1 please
Response line: 4.67

Prompt line: Entry O=C(Nc1sc2c(c1C(=O)Nc1ccccn1)CCCCC2)c1ccccc1Br please
Response line: 5.34
